Hey, just so you know, these numbers are from paper PMC9652321.

- assayed system: mSNAPc#2 5Mu Y389A;R445A;R151A;K194A;W350A (Homo sapiens) (UniProt Q5SXM2+Q92966+Q16533+O75971)
- Sequence 1: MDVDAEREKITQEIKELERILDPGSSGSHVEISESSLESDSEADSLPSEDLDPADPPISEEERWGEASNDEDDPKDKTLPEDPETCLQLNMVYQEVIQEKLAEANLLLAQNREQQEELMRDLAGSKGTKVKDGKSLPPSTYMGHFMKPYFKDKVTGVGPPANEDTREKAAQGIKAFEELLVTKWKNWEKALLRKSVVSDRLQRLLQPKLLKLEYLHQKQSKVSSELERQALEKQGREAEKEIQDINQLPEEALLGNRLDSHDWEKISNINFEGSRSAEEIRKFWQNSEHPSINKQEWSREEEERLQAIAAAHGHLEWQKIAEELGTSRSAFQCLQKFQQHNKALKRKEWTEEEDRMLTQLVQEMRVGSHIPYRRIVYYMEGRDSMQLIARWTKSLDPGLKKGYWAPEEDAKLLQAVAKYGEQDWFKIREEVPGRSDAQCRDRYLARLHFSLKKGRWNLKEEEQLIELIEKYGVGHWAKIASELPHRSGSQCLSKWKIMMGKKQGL
- Sequence 2: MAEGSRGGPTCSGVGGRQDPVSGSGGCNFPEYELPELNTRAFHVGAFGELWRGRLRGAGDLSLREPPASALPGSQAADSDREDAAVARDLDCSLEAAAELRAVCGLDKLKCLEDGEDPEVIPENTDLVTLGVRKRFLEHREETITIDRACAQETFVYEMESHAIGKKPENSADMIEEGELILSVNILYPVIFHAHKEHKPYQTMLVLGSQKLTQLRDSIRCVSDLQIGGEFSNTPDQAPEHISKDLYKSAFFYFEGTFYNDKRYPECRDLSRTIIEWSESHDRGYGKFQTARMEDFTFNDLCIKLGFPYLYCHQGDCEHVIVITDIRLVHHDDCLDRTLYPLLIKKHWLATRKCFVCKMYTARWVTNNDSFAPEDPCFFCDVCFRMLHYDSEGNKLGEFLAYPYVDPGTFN
- Sequence 3: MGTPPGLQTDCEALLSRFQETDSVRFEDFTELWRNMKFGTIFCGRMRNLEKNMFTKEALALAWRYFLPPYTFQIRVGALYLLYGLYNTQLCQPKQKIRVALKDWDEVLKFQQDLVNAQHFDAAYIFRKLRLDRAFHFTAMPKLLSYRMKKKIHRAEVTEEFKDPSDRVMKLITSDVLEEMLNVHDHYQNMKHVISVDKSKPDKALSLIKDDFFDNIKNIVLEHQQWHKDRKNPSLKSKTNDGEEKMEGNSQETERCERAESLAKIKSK
- Sequence 4: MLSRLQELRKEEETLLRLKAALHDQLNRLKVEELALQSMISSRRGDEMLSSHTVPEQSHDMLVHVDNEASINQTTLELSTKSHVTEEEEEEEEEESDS
- measurement notes: SPR
- test conditions: EMSA: 100 mM KCl, 25 mM HEPES-K pH 7.6, 12.5 mM MgCl2, 10 uM ZnCl2, 0.1 mM EDTA, 10% glycerol, 3 mM DTT, 0.5 mM PMSF, 50 nM DNA, RT 30 min; SPR: 100 mM KCl, 12.
property name: Kd (µM)
A number alone suffices; assume µM.

Give Kd for the following sequence: TGCTTACCGTAACTTGAAAGTATTT (double strand) [25 bp hU6-1 PSE (SPR)] 49
